Test system: response to Gi stimulation
Protocol: Effect of serine/threonine kinase inhibitors on response to Gi stimulation in osteoblasts (CDS)
Assay type: cell-based, human
Test context: FG3 osteoblasts; inhibitor 5 μM, 1 hour before agonist
Value kind: effect on response to Gi stimulation via LPA or somatostatin

>  <Chemical structure>
COc1ccc(S(=O)(=O)N(CCO)c2ccccc2CN(C)C/C=C/c2ccc(Cl)cc2)cc1

>  <Observed measurement>
not improved

$$$$
>  <Chemical structure>
COc1ccc2c(c1)c(C1=C(c3c[nH]c4ccccc34)C(=O)NC1=O)cn2CCCN(C)C

>  <Observed measurement>
not improved

$$$$
